STUDY_SYSTEM: kinase panel containing either 359 or 386 distinct kinases
PROTOCOL_TEXT: Competition binding assay, selectivity score (S10) against a panel of kinases
DETAILS: compounds at 10 μM; fraction of kinases with percent of control less than 10
MEASURE_NAME: Kinase Specificity (S10)

Answered examples (5):
[[record]]
compound = "CC(C)(C)c1cc(NC(=O)Nc2ccc(NC(=O)c3ccc(OC4CN(C5COC5)C4)cn3)cc2)no1"
measured_value = "C (C > 0.05)"

[[record]]
compound = "CC(C)(C)c1cc(NC(=O)Nc2ccc(NC(=O)c3ccc(OC4CCN(CC(F)(F)F)CC4)cn3)cc2)no1"
measured_value = "A (A ≦ 0.03)"

[[record]]
compound = "CN1C(C)(C)CC(Oc2ccc(C(=O)Nc3ccc(NC(=O)Nc4cc(C(C)(C)C)no4)cc3)nc2)CC1(C)C"
measured_value = "B (0.03 < B ≦ 0.05)"

[[record]]
compound = "CN1C(C)(C)CC(C)(Oc2ccc(C(=O)Nc3ccc(NC(=O)Nc4cc(C(C)(C)C)on4)cc3)nc2)CC1(C)C"
measured_value = "C (C > 0.05)"

[[record]]
compound = "CN1CCC(c2ccc(C(=O)Nc3ccc(NC(=O)Nc4cc(C(C)(C)C)on4)cc3)nc2)CC1"
measured_value = "B (0.03 < B ≦ 0.05)"


Now for a further compound.
-- ask For the compound `CN1CCN(c2ccnc(C(=O)Nc3ccc(NC(=O)Nc4cc(C(C)(C)C)on4)cc3)c2)CC1` , what Kinase Specificity (S10) is on record?
-- reply B (0.03 < B ≦ 0.05)

---

STUDY_SYSTEM: CSF1R (human) (Homo sapiens)
Construct: made in house; host or cells: T7 phage display or HEK-293 cells (alternatives, not resolved per kinase)
Sequence (P07333 20-972): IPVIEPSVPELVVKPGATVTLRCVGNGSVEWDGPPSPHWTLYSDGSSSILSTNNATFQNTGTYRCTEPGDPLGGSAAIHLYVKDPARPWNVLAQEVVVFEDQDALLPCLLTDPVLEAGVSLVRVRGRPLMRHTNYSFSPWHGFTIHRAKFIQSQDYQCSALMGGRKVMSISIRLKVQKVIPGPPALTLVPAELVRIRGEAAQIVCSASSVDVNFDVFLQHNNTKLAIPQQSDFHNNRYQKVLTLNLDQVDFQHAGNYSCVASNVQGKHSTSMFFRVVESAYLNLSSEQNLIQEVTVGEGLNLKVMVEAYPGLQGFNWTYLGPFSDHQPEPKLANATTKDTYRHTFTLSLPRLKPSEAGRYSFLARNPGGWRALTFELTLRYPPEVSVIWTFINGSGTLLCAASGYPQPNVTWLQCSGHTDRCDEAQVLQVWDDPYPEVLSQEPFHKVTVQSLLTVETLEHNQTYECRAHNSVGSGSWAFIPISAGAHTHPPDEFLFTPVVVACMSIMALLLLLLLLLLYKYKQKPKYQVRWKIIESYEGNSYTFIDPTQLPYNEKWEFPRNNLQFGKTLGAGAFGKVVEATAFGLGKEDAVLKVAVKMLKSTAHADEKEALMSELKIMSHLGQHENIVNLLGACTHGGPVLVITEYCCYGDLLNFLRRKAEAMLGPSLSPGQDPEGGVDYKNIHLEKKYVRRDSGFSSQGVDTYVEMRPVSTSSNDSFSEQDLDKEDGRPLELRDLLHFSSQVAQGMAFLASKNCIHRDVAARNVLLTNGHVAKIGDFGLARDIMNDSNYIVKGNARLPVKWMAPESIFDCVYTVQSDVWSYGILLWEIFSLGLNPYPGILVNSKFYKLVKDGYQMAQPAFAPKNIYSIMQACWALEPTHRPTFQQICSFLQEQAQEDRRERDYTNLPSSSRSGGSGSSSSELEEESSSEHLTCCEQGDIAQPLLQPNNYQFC
PROTOCOL_TEXT: Competition binding assay, CSF1R (human) Kd
pKd: −log10 of the molar value.
For each of the compounds below, state its pKd.

-- ask Look up pKd with CSF1R (human) (Homo sapiens) for this compound: `CC(C)(C)c1cc(NC(=O)Nc2ccc(NC(=O)c3ccc(OC[C@H]4CCCN5CCCC[C@@H]45)cn3)cc2)no1`
-- reply > 8.52

-- ask I'm curious: which pKd was measured for `CCN1CCC(Oc2ccc(C(=O)Nc3ccc(NC(=O)Nc4cc(C(C)(CF)CF)on4)cc3)nc2)CC1` tested on CSF1R (human) (Homo sapiens)?
-- reply > 8.52

-- ask Value wanted: pKd (CSF1R (human) (Homo sapiens)) of entry `CN1C(C)(C)CC(Oc2ccc(C(=O)Nc3ccc(NC(=O)Nc4cc(C(C)(C)F)no4)cc3)nc2)CC1(C)C`
-- reply > 8.52

-- ask // fetch CSF1R (human) (Homo sapiens) pKd for `CC(C)(C)OC(=O)N1CCC(Oc2ccc(C(=O)N[C@H]3CC[C@H](NC(=O)Nc4cc(C(C)(C)C)on4)CC3)nc2)CC1`
-- reply < 8.00

-- ask Lab note: need pKd with CSF1R (human) (Homo sapiens) for entry `CC(C)N1CC[C@@H](Oc2ccc(C(=O)Nc3ccc(NC(=O)Nc4cc(C(C)(C)C)on4)cc3)nc2)C1` , please look it up.
-- reply > 8.52

-- ask GET /values?readout=pKd&system=CSF1R (human) (Homo sapiens)&item= `CN1CCC(Oc2ccnc(C(=O)Nc3ccc(NC(=O)Nc4cc(C(C)(C)C)on4)cc3)c2)CC1`
-- reply 8.00 to 8.52

-- ask Reported pKd for CSF1R (human) (Homo sapiens), given CN1C2CCC1CC(Oc1ccc(C(=O)Nc3ccc(NC(=O)Nc4cc(C(C)(C)C)on4)cc3)nc1)C2 (centres unmarked) ?
-- reply > 8.52

-- ask Identify the measured pKd of CC(C)(C)c1cc(NC(=O)Nc2ccc(NC(=O)c3ccc(OC4CN5CCC4CC5)cn3)cc2)no1 (centres unmarked) for CSF1R (human) (Homo sapiens).
-- reply > 8.52
